Origin of values: patent US20230074436A1

Listing of recorded Kd by entry.
Biological target: human alpha-synuclein monomer (human, UniProt P37840 1-140)
Assay: SPR (Biacore 8K), IgG captured on anti-human Fc, aSyn monomer injected
Kindly format the answer as number then unit.

Binder | Observed result
HC6_LC_k3_4 (antibody, V domains shown) VH: EVQLVESGGGLVQPGGSLRLSCAASGFTFSNAAMYWVRQAPGKGLELVSRIRTKPNNYATYHADSVKGRFTISRDDSKNTLYLQMNSLRAEDTAVYYCTADMATGDYWGQGTLVTVSS VL: EIVMTQSPATLSLSPGERATLSCKASQNINENLDWYQQKPGQAPRPLIYSTNNLKTGIPARFSGSGSGTDFTLTISSLQPEDFAVYYCYQYKSAWTFGQGTKVEIK | 0.18 nM
HC6_LC_k3_9 (antibody, V domains shown) VH: EVQLVESGGGLVQPGGSLRLSCAASGFTFSNAAMYWVRQAPGKGLELVSRIRTKPNNYATYHADSVKGRFTISRDDSKNTLYLQMNSLRAEDTAVYYCTADMATGDYWGQGTLVTVSS VL: EIVMTQSPATLSLSPGERATLSCKASQGISNYLAWYQQKPGQAPRPLIYSTNNLKTGIPARFSGSGSGTDFTLTISSLQPEDFAVYYCYQYKSAWTFGQGTKVEIK | 0.17 nM

Ask: Can you look up the measured Kd of HC6_LC_k3_7 (antibody, V domains shown) VH: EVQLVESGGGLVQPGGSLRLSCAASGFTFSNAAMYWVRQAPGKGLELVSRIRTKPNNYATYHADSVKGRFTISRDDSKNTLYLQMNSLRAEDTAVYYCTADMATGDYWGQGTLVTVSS VL: EIVMTQSPATLSLSPGERATLSCKASQNISNYLDWYQQKPGQAPRPLIYSTNNLKTGIPARFSGSGSGTDFTLTISSLQPEDFAVYYCYQYKSAWTFGQGTKVEIK for me?
Reply: 0.22 nM
